- testSystem: T1, human IL-12Rβ2 expressed on cells (human, UniProt Q99665 24-862)
- T1 construct: the cell lines are described by plasmid or cDNA number only; also called hIL-12RB2; HEK293T transiently transfected with human IL-12Rβ2
- T1 sequence: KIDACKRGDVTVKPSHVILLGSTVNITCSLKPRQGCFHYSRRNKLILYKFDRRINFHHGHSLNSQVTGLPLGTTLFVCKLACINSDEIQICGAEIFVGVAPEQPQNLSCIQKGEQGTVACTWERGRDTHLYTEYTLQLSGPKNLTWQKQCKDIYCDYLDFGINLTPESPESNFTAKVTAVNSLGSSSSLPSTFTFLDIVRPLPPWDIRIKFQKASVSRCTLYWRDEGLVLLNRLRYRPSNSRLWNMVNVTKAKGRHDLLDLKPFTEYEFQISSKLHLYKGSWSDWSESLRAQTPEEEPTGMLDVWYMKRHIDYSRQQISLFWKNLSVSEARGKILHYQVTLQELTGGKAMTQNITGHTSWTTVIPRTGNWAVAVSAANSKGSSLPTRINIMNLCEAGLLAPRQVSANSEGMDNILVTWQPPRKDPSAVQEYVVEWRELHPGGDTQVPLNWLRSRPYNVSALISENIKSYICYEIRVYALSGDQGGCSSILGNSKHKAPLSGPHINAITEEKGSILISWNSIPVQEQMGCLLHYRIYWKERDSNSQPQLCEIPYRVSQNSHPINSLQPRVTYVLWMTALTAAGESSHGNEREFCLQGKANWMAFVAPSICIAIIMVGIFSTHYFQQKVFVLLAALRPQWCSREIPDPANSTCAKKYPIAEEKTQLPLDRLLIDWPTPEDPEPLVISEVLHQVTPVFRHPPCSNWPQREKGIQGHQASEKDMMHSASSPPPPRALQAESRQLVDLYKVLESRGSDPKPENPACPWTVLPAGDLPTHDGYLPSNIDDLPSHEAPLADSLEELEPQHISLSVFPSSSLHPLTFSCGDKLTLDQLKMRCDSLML
- assayText: flow cytometry, periplasmic extract VHH-HA on HEK293T cells transiently expressing human IL-12Rβ2
outcomeMeasure: % cells bound

binder="anti-IL-12Rβ2 VHH clone 3CRHM73 (clone ID 21060) (VHH, Tested as periplasmic extract; not shown: C-terminal HA tag) VHH: QVQLQESGGGLVQAGGSLSLSCAASGSAFRLNFMGWYRQAPGKQRELVAAINSGGTEIYHDSVKGRFTISRDNADSTVWLQMNSLKPDDTAVYYCAADRGISWSKLAGGMDYWGKGTQVTVSS" outcomemeasure="% cells bound" measured=19.5%
binder="anti-IL-12Rβ2 VHH clone 3CRHS9 (clone ID 20415) (VHH, Tested as periplasmic extract; also called 3CRMS9; not shown: C-terminal HA tag) VHH: QVQLQESGGGLVQPGGSLRLSCTASGSIVSIYNMDWYRQAPGNEREWVASITSSGDPYYDGSAKGRFTISRDNAKMTVYLQMNSLKPEDTAVYYCKVPTEKGNYWGQGTQVTVSS" outcomemeasure="% cells bound" measured=42.1%
binder="anti-IL-12Rβ2 VHH clone 3CAHS102 (clone ID 20399) (VHH, Tested as periplasmic extract; not shown: C-terminal HA tag) VHH: QVQLQESGGGLVQPGGSLRLSCAASGSILRINLMGWYRQVPGKQRELVAEMSTGGSTTYVDSVEGRFTISRDNAKNTVYLQMNSLKPEDTAVYYCNAKAWQLGRLENDDWGQGTQVTVSS" outcomemeasure="% cells bound" measured=44.7%
binder="anti-IL-12Rβ2 VHH clone 3CRHS106 (clone ID 20429) (VHH, Tested as periplasmic extract; not shown: C-terminal HA tag) VHH: QVQLQESGGGLVQPGGSLRLSCKASGFTFSTYAMSWVRQAPGKGLEWVSAVNSGGLSTDYADSVEGRFTISRDDAKNMLFLQMNSLKPEDTARYYCAKYEDCSDYMCHRDRAGYWGQGTQVTVSS" outcomemeasure="% cells bound" measured=43.3%
